Where do the numbers come from? From the supplement of paper PMC10724198.

tested on: Saccharomyces cerevisiae; assay: protein stability index of tFT-peptide fusion (C-terminal peptide) (PSI (0-1 scale)); higher = more stable (slower turnover); conditions: genetic background: wild type; temperature: 30 C
MEASURE_NAME: protein stability index
Lab note: write the figure by itself, no unit.

As a guide, the following entries are already answered.
1) SLSQWTSPGLNI : 0.708
2) AKSSLGSSYKTL : 0.761
3) DGVRGWVGVAGD : 0.698
4) VMRMVWVLGVMC : 0.299
5) LTHLPSLCVRRI : 0.647
6) SPAPALFCPARF : 0.739

Give recorded protein stability index. GGRGRGMWGIFG
0.681

Give recorded protein stability index. LGLRSGQGPVTL
0.775

Give recorded protein stability index. PRPPPPARSPPS
0.66

Give recorded protein stability index. TVVVGHSRLVVG
0.703

Give recorded protein stability index. KKTDNGSYERGE
0.701

Give recorded protein stability index. LSFFICSFFFVL
0.408

Give recorded protein stability index. IDKRWVKKGGDK
0.64

Give recorded protein stability index. KSRRTTMINIRC
0.668

---

system: Saccharomyces cerevisiae; experiment: protein stability index of tFT-peptide fusion (C-terminal peptide) (PSI (0-1 scale)); higher = more stable (slower turnover); settings: genetic background: das1 deletion; temperature: 30 C
MEASURE_NAME: protein stability index
Lab note: write the figure by itself, no unit.

As a guide, the following entries are already answered.
1. PFLSLPFLFPSS : 0.684
2. HDLRRRVVSVMV : 0.337
3. SSMSAVFRLQVC : 0.613
4. YTCFLFLLRCMT : 0.261
5. GVRRRQLIWSVC : 0.468
6. QRTNTIINKRIV : 0.623

Give recorded protein stability index. AVTMSYQCGIFI
0.564

Give recorded protein stability index. RSLSWCTKRRCC
0.675

Give recorded protein stability index. VWFFLLSFANRL
0.465

Give recorded protein stability index. RRLAVWCDFRSL
0.663

Give recorded protein stability index. FRDRFLRWNLVS
0.649

---

test system: Saccharomyces cerevisiae; assay: protein stability index of tFT-peptide fusion in deletion strain of DOA10 (PSI (0-1 scale)); higher = more stable (slower turnover)
Reported protein stability index by item:
Lab note: write the figure by itself, no unit.

1. GLYMCSVGMWFR : 0.577
2. AITLPMCPLLSR : 0.594
3. CLVSLPILLFWR : 0.638
4. RVTRLAAIYFRI : 0.38
5. SLVSLPILLFFR : 0.619

Give recorded protein stability index. AITLPMTPLLLR
0.644

Give recorded protein stability index. GLYMCSVGCRFR
0.654

Give recorded protein stability index. RVTHLDAIYFRI
0.645

Give recorded protein stability index. CITLPMCPLLLR
0.635

Give recorded protein stability index. ILVSLPILLFFR
0.545

---

tested on: Saccharomyces cerevisiae; test: protein stability index of tFT-peptide fusion (C-terminal peptide) (PSI (0-1 scale)); higher = more stable (slower turnover); details: genetic background: wild type; temperature: 30 C
Reported protein stability index by item:

As a guide, the following entries are already answered.
1. VFGFLVFYVCVR : 0.268
2. YLYSCVCGVLSN : 0.547
3. SGGVRDDFLWVL : 0.728
4. EGGVRSRVRSRL : 0.863
5. PAHSYPILASGH : 0.675

Give recorded protein stability index. GGGLGGGGFRGG
0.749

Give recorded protein stability index. AVSAGQASPGRA
0.681

Give recorded protein stability index. DIRVFFNSREGN
0.742

Give recorded protein stability index. PPPPSPPLHRPP
0.738

Give recorded protein stability index. RRDIIMTKKTLH
0.658

---

tested on: Saccharomyces cerevisiae; test: protein stability index of tFT-peptide fusion (C-terminal peptide) (PSI (0-1 scale)); higher = more stable (slower turnover); settings: genetic background: wild type; temperature: 30 C
Use 0.7 as the dividing line for protein stability index, with the line itself on the YES side and lower values as NO.

Solved entries (count: 5):
1) PPPPPATRPSSL : NO
2) VGVSVVMVVEVP : NO
3) VFSLAFYLVLFF : NO
4) KELQKKRIKKKN : YES
5) WVGSWYVATGEA : YES

Form field: protein stability index at least 0.7? Entry: GREGQGRGGQQG
NO

Form field: protein stability index at least 0.7? Entry: LRRSRGTVWRWY
NO

Form field: protein stability index at least 0.7? Entry: PPPPPLPLDYPP
NO

---

Reported protein stability index by item:
system: Saccharomyces cerevisiae; experiment: protein stability index of tFT-peptide fusion (C-terminal peptide) (PSI (0-1 scale)); higher = more stable (slower turnover); details: genetic background: wild type; temperature: 30 C
Lab note: write the figure by itself, no unit.

As a guide, the following entries are already answered.
1) PPPLPPPLPLCS : 0.675
2) TASVDQAVRWRG : 0.708
3) SRVWVGQMIRGR : 0.664

Give recorded protein stability index. HVLFPLHPNRIP
0.661

Give recorded protein stability index. PGWALLQLVFLK
0.456

Give recorded protein stability index. RSVPPSSPPPYF
0.699

Give recorded protein stability index. KTFGHQYVFIRK
0.689

Give recorded protein stability index. WHRAGRSRMSWS
0.777

Give recorded protein stability index. RTQRGRMGGEQG
0.762

Give recorded protein stability index. GWSLDYGSTGDR
0.812

Give recorded protein stability index. GRCFGGVVRGAL
0.655

Give recorded protein stability index. LLVGVGGAGGVG
0.603

Give recorded protein stability index. PVRRAHPPPPRP
0.674

Give recorded protein stability index. SMAFLNQRPGIL
0.685

Give recorded protein stability index. LPTPVRRPPSPP
0.71

Give recorded protein stability index. PPACPSSRIPVF
0.615

Give recorded protein stability index. MVDGFLRFDTKM
0.704

Give recorded protein stability index. WEISNFFGCFIG
0.428

Give recorded protein stability index. TQEQVQKKLLKS
0.665

---

test system: Saccharomyces cerevisiae; test: protein stability index of tFT-peptide fusion (C-terminal peptide) (PSI (0-1 scale)); higher = more stable (slower turnover); settings: genetic background: cdc34-1; temperature: 37 C
Reported protein stability index by item:
Lab note: write the figure by itself, no unit.

As a guide, the following entries are already answered.
1. VIYNSALLLVRL : 0.273
2. GVVVGVLLVCGW : 0.268
3. CLLGMKSRTILV : 0.347
4. LGFHFFFTLIFF : 0.284
5. PHHSPPTGPPND : 0.673

Give recorded protein stability index. GLLSLSGLRWFC
0.672

---

test system: Saccharomyces cerevisiae; assay: protein stability index of tFT-peptide fusion (C-terminal peptide) (PSI (0-1 scale)); higher = more stable (slower turnover); details: genetic background: das1 deletion; temperature: 30 C
MEASURE_NAME: protein stability index
Lab note: write the figure by itself, no unit.

As a guide, the following entries are already answered.
1. MSSFLSKKENNN [SNT1 C-terminal 12 aa] : 0.722
2. NNIKWYLHWKFI [VPR1 C-terminal 12 aa] : 0.684
3. QRDFLLFYNAIM [CDC36 C-terminal 12 aa] : 0.687

Give recorded protein stability index. DNNDLAKSSSQK [CMI7 C-terminal 12 aa]
0.706

Give recorded protein stability index. EEGIDPSTYLNN [SUB2 C-terminal 12 aa]
0.709

Give recorded protein stability index. GVFSKSSAELRF [YDL016C C-terminal 12 aa]
0.715

Give recorded protein stability index. QIAGRYVVDTSK [ADH2 C-terminal 12 aa]
0.687

Give recorded protein stability index. TVDYIASNPDAN [ACP1 C-terminal 12 aa]
0.696

Give recorded protein stability index. ERNPTQRPQRRY [RPS10A C-terminal 12 aa]
0.728

Give recorded protein stability index. DLQSLIESNGFA [PFK27 C-terminal 12 aa]
0.689

Give recorded protein stability index. QPDDKTKGILDR [ERV41 C-terminal 12 aa]
0.729

Give recorded protein stability index. FVLKTLNMNVTN [OST1 C-terminal 12 aa]
0.681

Give recorded protein stability index. DDTVQFMRRALE [EAF5 C-terminal 12 aa]
0.665

Give recorded protein stability index. STMQERFAESTD [VMA1 C-terminal 12 aa]
0.682

Give recorded protein stability index. PAAISGTVPSIF [DIN7 C-terminal 12 aa]
0.715

Give recorded protein stability index. TNEWCLFTPDSP [MLH2 C-terminal 12 aa]
0.744

Give recorded protein stability index. LIVSFFYKRNAL [IQG1 C-terminal 12 aa]
0.667

Give recorded protein stability index. DVHSKIEKQLGI [UMP1 C-terminal 12 aa]
0.72

Give recorded protein stability index. FRALAELYNLVL [GAS5 C-terminal 12 aa]
0.701

Give recorded protein stability index. GGLSDIGKNTSN [HUG1 C-terminal 12 aa]
0.693

Give recorded protein stability index. ELIEKLKEVKAI [CIR1 C-terminal 12 aa]
0.686

Give recorded protein stability index. ACIFNVATASIP [YGR270C-A C-terminal 12 aa]
0.719

Give recorded protein stability index. PDEISFLQQFTS [KAP104 C-terminal 12 aa]
0.721

Give recorded protein stability index. PSSDHAKSVMGE [YML101C-A C-terminal 12 aa]
0.707

Give recorded protein stability index. RTGSQSPPSSSQ [MED7 C-terminal 12 aa]
0.707
